subjectOfTest: human α5β1 integrin (Homo sapiens, UniProt P05556+P08648)
Construct: purchased R&D Systems (Biotechne brand) 3230-A5
methodDescription: Fibronectin-α5β1 competitive solid-phase ELISA binding assay
reportedConditions: immobilized fibronectin, soluble integrin
measuredParameter: pIC50
As a rule, pIC50 stands for the negative log10 of the concentration, concentration in M.

In plain terms, CN1C(=O)[C@H](C2CCCCC2)NC(=O)[C@H](CC(=O)O)NC(=O)CNC(=O)[C@H](CCCNC(=N)N)NC(=O)CC[C@H]1C(N)=O [compound 6, [Arg-Gly-Asp-Chg-(NMe)Glu]-CONH2] has a documented pIC50 of 6.95

====

subjectOfTest: human αvβ3-integrin (Homo sapiens, UniProt P05106+P06756)
methodDescription: Vitronectin-αvβ3 competitive solid-phase ELISA binding assay
reportedConditions: competitive ELISA, immobilized vitronectin, soluble integrin
measuredParameter: pIC50
Scale note: pIC50 = -log10(concentration in M).

Measured pIC50, CN1C(=O)[C@H](C2CCCCC2)NC(=O)[C@H](CC(=O)O)NC(=O)CNC(=O)[C@H](CCCNC(=N)N)NC(=O)CC[C@H]1C(N)=O [compound 6, [Arg-Gly-Asp-Chg-(NMe)Glu]-CONH2] : 5.92

====

subjectOfTest: human αvβ6 integrin (Homo sapiens, UniProt P06756+P18564)
Construct: using immobilized ECM protein and soluble integrin
methodDescription: LAP(TGF-β1)-αvβ6 competitive solid-phase ELISA binding assay
reportedConditions: immobilized LAP, soluble integrin
measuredParameter: pIC50
Just the number, please; pIC50 means minus log10 of the concentration in mol/L.

Previously resolved entries follow.
CN1C(=O)CC[C@@H](C(N)=O)NC(=O)[C@H](C2CCCCC2)NC(=O)[C@H](CC(=O)O)NC(=O)CNC(=O)[C@@H]1CCCNC(=N)N [compound 2, [(NMe)Arg-Gly-Asp-Chg-Glu]-CONH2] : 6.98
CN1C(=O)[C@H](C2CCCCC2)NC(=O)[C@H](CC(=O)O)NC(=O)CNC(=O)[C@H](CCCNC(=N)N)NC(=O)CC[C@H]1C(N)=O [compound 6, [Arg-Gly-Asp-Chg-(NMe)Glu]-CONH2] : 8.80

Continue with the compound presented below.
// pIC50 lookup, compound = CN1CC(=O)N[C@@H](CC(=O)O)C(=O)N[C@@H](C2CCCCC2)C(=O)N[C@H](C(N)=O)CCC(=O)N[C@@H](CCCNC(=N)N)C1=O [compound 3, [Arg-(NMe)Gly-Asp-Chg-Glu]-CONH2] , result: 6.68

====

subjectOfTest: alphaVbeta5 (Homo sapiens, UniProt P06756+P18084)
methodDescription: alphaVbeta5 binding affinities (supplementary CSV only)
reportedConditions: unit inferred
pIC50: −log10 of the molar value.
pIC50 by entry:

N=C(N)NCCC[C@@H]1NC(=O)CC[C@@H](C(N)=O)NC(=O)[C@H](C2CCCCC2)NC(=O)[C@H](CC(=O)O)NC(=O)CNC1=O [compound 1, [Arg-Gly-Asp-Chg-Glu]-CONH2] : < 5.30

Below: the item to evaluate.
The molecule listed as CN1C(=O)[C@H](C2CCCCC2)NC(=O)[C@H](CC(=O)O)NC(=O)CNC(=O)[C@H](CCCNC(=N)N)NC(=O)CC[C@H]1C(N)=O [compound 6, [Arg-Gly-Asp-Chg-(NMe)Glu]-CONH2] has a reported pIC50 of < 5.30

These entries and their values trace back to paper PMC8279406.
